ASSAY EXPLANATION: physchem
EXPERIMENTAL PARAMETERS: phosphate buffer, 25 °C, pH 5, aqueous buffer
MEASUREMENT TYPE: solubility

Hello, please tell me recorded solubility for this one: Cc1ccc(Nc2nccc(N(C)c3ccc4c(C)n(C)nc4c3)n2)cc1S(N)(=O)=O [pazopanib free base]
~6 ng/mL
